assay: Effect of a single 2 g dose of SYM-1219 on the plasma pharmacokinetics of EE2 and NET in healthy female subjects; format: in vivo, human; conditions: female, human, plasma, Group B2 Period 1: EE2/NET alone; read-out: EE2 Cmax, Mean
Quantity Name: Cmax (ng/mL)
Report as a plain number; the unit ng/mL is understood.

// recorded Cmax for `C#C[C@]1(O)CC[C@H]2[C@@H]3CCc4cc(O)ccc4[C@H]3CC[C@@]21C` : 0.0891

====

experiment: Effect of a single 2 g dose of SYM-1219 on the plasma pharmacokinetics of EE2 and NET in healthy female subjects; type: in vivo, human; settings: female, human, plasma, Group B1 Period 1: EE2/NET alone; read-out: EE2 AUC0-∞, Geometric Least Squares (LS) Means
Quantity Name: AUC(0-inf)

// recorded AUC(0-inf) for `C#C[C@]1(O)CC[C@H]2[C@@H]3CCc4cc(O)ccc4[C@H]3CC[C@@]21C` : 0.878 ng·h/mL

====

experiment: Effect of a single 2 g dose of SYM-1219 on the plasma pharmacokinetics of EE2 and NET in healthy female subjects; type: in vivo, human; conditions: female, human, plasma, Group B2 Period 1: EE2/NET alone; read-out: NET AUC0-t, Geometric LSMeans
Quantity Name: AUC(0-t) (ng·h/mL)
Report as a plain number; the unit ng·h/mL is understood.

// recorded AUC(0-t) for C#C[C@]1(O)CC[C@H]2[C@@H]3CCC4=CC(=O)CC[C@@H]4[C@H]3CC[C@@]21C [NET, norethindrone] : 46.9

====

experiment: Effect of a single 2 g dose of SYM-1219 on the plasma pharmacokinetics of EE2 and NET in healthy female subjects; type: in vivo, human; conditions: female, human, plasma, Group B1 Period 1: EE2/NET alone; read-out: NET Cmax, Median
Quantity Name: Cmax
Answer as a quantity: numeral, then unit.

// recorded Cmax for `C#C[C@]1(O)CC[C@H]2[C@@H]3CCC4=CC(=O)CC[C@@H]4[C@H]3CC[C@@]21C` : 8 ng/mL

====

experiment: Single oral dose pharmacokinetics (plasma and urine) of SYM-1219 microgranule formulation in fasted healthy female subjects; details: female, human, plasma, po, 1 g, AUC0-t, Median; 1 gram single oral dose; fasted; N = 14
Quantity Name: AUC(0-t) (µg·h/mL)
Report as a plain number; the unit µg·h/mL is understood.

// recorded AUC(0-t) for Cc1ncc([N+](=O)[O-])n1CC(C)O (stereo not shown) [SYM-1219] : 587

====

assay: Single oral dose pharmacokinetics (plasma and urine) of SYM-1219 microgranule formulation in fasted healthy female subjects; settings: female, human, plasma, po, 1 g, AUC0-t, Mean; 1 gram single oral dose; fasted; N = 14
Quantity Name: AUC(0-t) (µg·h/mL)
Report as a plain number; the unit µg·h/mL is understood.

// recorded AUC(0-t) for Cc1ncc([N+](=O)[O-])n1CC(C)O (stereo not shown) [SYM-1219] : 610

====

Assay: Effect of a single 2 g dose of SYM-1219 on the plasma pharmacokinetics of EE2 and NET in healthy female subjects
Format: in vivo, human
Conditions: female, human, plasma, Group B2 Period 1: EE2/NET alone; read-out: NET t1/2, Mean (converted)
Experimental: Methods: Fifty-four (54) healthy female subjects, ages 18-65, received EE2/NET alone and in combination, where SYM-1219+EE2/NET were co-administered on Day 1 (Group B1; N=27) or SYM-1219 on Day 1 and EE2/NET on Day 2 (Group B2; N=27). Serial blood samples were drawn to measure plasma concentrations of EE2/NET. […] Safety was evaluated by recording of adverse events, vital signs, ECGs and standard laboratory tests.
Quantity Name: half-life (min)
Report as a plain number; the unit min is understood.

// recorded half-life for `C#C[C@]1(O)CC[C@H]2[C@@H]3CCC4=CC(=O)CC[C@@H]4[C@H]3CC[C@@]21C` : 602
